- method-summary: Distribution of C1 in tissues
- Type: in vivo, Wistar rats
- condition-label: male, Wistar, rat, small intestine, po, 75 mg/kg, Small intestine, 10 min, p.o. 75 mg/kg, n = 3; read-out: Average Concentration
reported-property: concentration at 10 min (ng/mL)
Expressed in ng/mL, but write only the number.

Prompt: Item O=C(/C=C(/Br)C(=O)O)Nc1ccc(O)c(C(=O)O)c1 [Compound C1] : provide concentration at 10 min
Response: 31600

---

- method-summary: Pharmacokinetic profiles after p.o., i.p. and i.v. administration
- Format: in vivo, Wistar rats
- condition-label: Wistar, rat, plasma, ip, 75 mg/kg, i.p. 75 mg/kg, 45 min, n = 6
reported-property: concentration at 45 min (ng/mL)
Expressed in ng/mL, but write only the number.

Prompt: Item O=C(/C=C(/Br)C(=O)O)Nc1ccc(O)c(C(=O)O)c1 : provide concentration at 45 min
Response: 17700

---

- method-summary: Pharmacokinetic profiles after p.o., i.p. and i.v. administration
- Assay type: in vivo, Wistar rats
- condition-label: Wistar, rat, plasma, ip, 75 mg/kg, plasma, i.p. 75 mg/kg, 720 min, n = 6; read-out: Average Concentration
reported-property: concentration at 720 min
Write the figure, then the unit, nothing else.

Prompt: Item O=C(/C=C(/Br)C(=O)O)Nc1ccc(O)c(C(=O)O)c1 [Compound C1] : provide concentration at 720 min
Response: 0 µg/mL

---

- method-summary: Pharmacokinetic profiles after p.o., i.p. and i.v. administration
- Assay type: in vivo, Wistar rats
- condition-label: Wistar, rat, plasma, ip; i.p. 75 mg/kg, rats; read-out: MRT, mean residence time
reported-property: MRT (h)
Expressed in h, but write only the number.

Prompt: Item O=C(/C=C(/Br)C(=O)O)Nc1ccc(O)c(C(=O)O)c1 : provide MRT
Response: 3.1

---

- method-summary: Distribution of C1 in tissues
- Assay type: in vivo, Wistar rats
- condition-label: male, Wistar, rat, testis, po, 75 mg/kg, Testis, 30 min, p.o. 75 mg/kg, n = 3; read-out: Average Concentration
reported-property: concentration at 30 min (ng/mL)
Expressed in ng/mL, but write only the number.

Prompt: Item O=C(/C=C(/Br)C(=O)O)Nc1ccc(O)c(C(=O)O)c1 : provide concentration at 30 min
Response: 3800

---

- method-summary: Distribution of C1 in tissues
- Format: in vivo, Wistar rats
- condition-label: male, Wistar, rat, lung, po, 75 mg/kg, Lung, 90 min, p.o. 75 mg/kg, n = 3; read-out: Average Concentration
reported-property: concentration at 90 min (µg/mL)
Expressed in µg/mL, but write only the number.

Prompt: Item O=C(/C=C(/Br)C(=O)O)Nc1ccc(O)c(C(=O)O)c1 [Compound C1] : provide concentration at 90 min
Response: 7.4

---

- method-summary: Pharmacokinetic profiles after p.o., i.p. and i.v. administration
- Format: in vivo, Wistar rats
- condition-label: Wistar, rat, plasma, ip; i.p. 75 mg/kg, rats; read-out: tmax, time to maximum plasma concentration (converted)
reported-property: Tmax (min)
Expressed in min, but write only the number.

Prompt: Item O=C(/C=C(/Br)C(=O)O)Nc1ccc(O)c(C(=O)O)c1 [Compound C1] : provide Tmax
Response: 33

---

- method-summary: Distribution of C1 in tissues
- Assay type: in vivo, Wistar rats
- condition-label: male, Wistar, rat, testis, po, 75 mg/kg, Testis, p.o. 75 mg/kg, individual rats; read-out: Concentration (µg/mL) at 30 minutes, Rat 1-3
reported-property: concentration at 30 min (µg/mL)
Expressed in µg/mL, but write only the number.

Prompt: Item O=C(/C=C(/Br)C(=O)O)Nc1ccc(O)c(C(=O)O)c1 : provide concentration at 30 min
Response: 4
